Would you mind telling me the reported viability at 24 h, 10 µmol/L of each entry?
- experimentNotes: Viability of fibroblast cells, MTT assay
- Type: cell-based, Human
- conditionsUsed: human, primary dermal fibroblast cells; 10 µmol/L, 24 h, MTT; ± 2; read-out: Viability of fibroblast cells
Residues, ends and D or L forms follow the SMILES beside them.
Numeric only. Scale: %

Bench note: what viability at 24 h, 10 µmol/L did CCCCCCCCCCCCCCCC(=O)N[C@@H](CCCCN)C(=O)N[C@H](C(=O)N[C@H](C(=O)N[C@@H](CCCCN)C(=O)N[C@@H](CO)C(=O)O)[C@@H](C)O)[C@@H](C)O [Peptide 4, Pal-Lys-Thr-Thr-Lys-Ser-OH, reference compound] (HELM PEPTIDE1{[CCCCCCCCCCCCCCCC(=O)[*:2]].K.T.T.K.S}$$$$V2.0) show? 91

Quick one: viability at 24 h, 10 µmol/L of CCCCCCCCCCCCCCCC(=O)N[C@@H](CCCNC(=N)N)C(=O)N[C@H](C(=O)N[C@H](C(=O)N[C@@H](CCCNC(=N)N)C(=O)N[C@@H](CO)C(N)=O)[C@@H](C)O)[C@@H](C)O [Peptide 24, Pal-Arg-Thr-Thr-Arg-Ser-NH2] (HELM PEPTIDE1{[CCCCCCCCCCCCCCCC(=O)[*:2]].R.T.T.R.S.[am]}$$$$V2.0) ? 104

Name the recorded viability at 24 h, 10 µmol/L for C[C@@H](O)[C@H](NC(=O)[C@H](CCCNC(=N)N)NC(=O)CCCCC1CCSS1)C(=O)N[C@H](C(=O)N[C@@H](CCCNC(=N)N)C(=O)N[C@@H](CO)C(N)=O)[C@@H](C)O (mixture of isomers) [Peptide 23, Lip-Arg-Thr-Thr-Arg-Ser-NH2] . 79
